EXPERIMENTAL TARGET: Carbonic anhydrase 1 (Homo sapiens, UniProt P00915)
Sequence (P00915 whole entry): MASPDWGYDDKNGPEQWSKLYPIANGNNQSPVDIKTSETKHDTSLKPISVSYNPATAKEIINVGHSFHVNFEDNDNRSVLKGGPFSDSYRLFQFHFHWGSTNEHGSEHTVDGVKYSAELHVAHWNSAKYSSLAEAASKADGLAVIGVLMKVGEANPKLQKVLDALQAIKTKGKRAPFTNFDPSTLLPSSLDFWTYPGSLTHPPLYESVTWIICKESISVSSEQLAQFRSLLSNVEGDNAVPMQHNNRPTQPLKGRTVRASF
PROTOCOL DESCRIPTION: Inhibition of human recombinant carbonic anhydrase 1 by stopped flow CO2 hydration method
OBSERVATION TYPE: Ki

Below: 3 molecules and their reported Ki.
INSERT INTO assay_data (smi, observation_type, recorded_measurement) VALUES
  ('CCOC(=O)COC1=NS(=O)(=O)OC(C)=C1', 'Ki', '> 20 µM'),
  ('CC1=CC(=O)N(CC(=O)c2ccccc2)S(=O)(=O)O1', 'Ki', '> 20 µM'),
  ('CC1=CC(OCC(=O)c2ccccc2)=NS(=O)(=O)O1', 'Ki', '> 20 µM');

// Ki lookup, key: `CC1=CC(OCc2cccc([N+](=O)[O-])c2)=NS(=O)(=O)O1`
> 20 µM

Okay, and `CC1=CC(=O)N(Cc2cccc(Br)c2)S(=O)(=O)O1` ?
> 20 µM

Okay, and `CC1=CC(=O)N(Cc2ccc(C#N)cc2)S(=O)(=O)O1` ?
> 20 µM

Okay, and `CC1=CC(=O)N(Cc2c(F)cccc2F)S(=O)(=O)O1` ?
> 20 µM

Okay, and `CC(=O)CN1C(=O)C=C(C)OS1(=O)=O` ?
15.6 µM

Okay, and `C#CCOC1=NS(=O)(=O)OC(C)=C1` ?
> 20 µM

Okay, and `CC1=CC(OCc2cccc(F)c2)=NS(=O)(=O)O1` ?
> 20 µM

---

The following molecules are shown together with reported Ki values.
EXPERIMENTAL TARGET: Carbonic anhydrase 9 (Homo sapiens, UniProt Q16790)
PROTOCOL DESCRIPTION: Inhibition of human recombinant carbonic anhydrase 9 by stopped flow CO2 hydration method

INSERT INTO measurements (smi, observation_type, recorded_measurement) VALUES
  ('CC1=CC(OCc2cccc([N+](=O)[O-])c2)=NS(=O)(=O)O1', 'Ki', '> 20 µM'),
  ('CC(=O)CN1C(=O)C=C(C)OS1(=O)=O', 'Ki', '> 20 µM');

Attention now turns to another entry.
// Ki lookup, key: `CC(=O)COC1=NS(=O)(=O)OC(C)=C1`
> 20 µM
